assay-system: Ferroportin (Mus musculus, UniProt Q9JHI9)
Sequence (Q9JHI9 whole entry): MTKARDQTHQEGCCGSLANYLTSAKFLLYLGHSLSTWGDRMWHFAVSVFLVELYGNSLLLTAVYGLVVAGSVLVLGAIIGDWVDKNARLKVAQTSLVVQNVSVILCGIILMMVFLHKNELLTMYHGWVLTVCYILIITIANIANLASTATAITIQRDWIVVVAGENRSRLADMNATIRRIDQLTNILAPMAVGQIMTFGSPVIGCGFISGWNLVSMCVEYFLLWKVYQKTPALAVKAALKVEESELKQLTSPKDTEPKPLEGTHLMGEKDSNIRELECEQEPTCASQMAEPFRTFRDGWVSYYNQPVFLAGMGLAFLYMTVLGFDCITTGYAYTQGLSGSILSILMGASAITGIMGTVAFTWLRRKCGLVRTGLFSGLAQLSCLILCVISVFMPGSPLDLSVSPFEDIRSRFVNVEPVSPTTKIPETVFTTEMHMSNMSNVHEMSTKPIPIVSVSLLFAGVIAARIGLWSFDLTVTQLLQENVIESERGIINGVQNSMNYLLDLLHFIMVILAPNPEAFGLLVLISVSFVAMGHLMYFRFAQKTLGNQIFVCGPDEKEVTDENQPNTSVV
procedure-summary: Inhibition of ferroportin in mouse J774 cells assessed as reduction in binding of hepcidin to ferroportin pre-incubated for 15 mins before TMR-hepcidin addition and further incubated for 2 hrs by fluorescence based hepcidin internalization assay
Assay type: cell-based

structure-as-smiles	IC50
O=C(NCc1ncccc1F)c1cn(CCNCCc2nc3ccccc3[nH]2)nn1	11 nM

Value source: ChEMBL document CHEMBL4419169
